- method.notes: Pharmacokinetics of rivaroxaban in rats, alone and with palbociclib
- Assay type: in vivo, Sprague-Dawley rats
- conditions.used: male, Sprague-Dawley, rat, plasma, po, 2 mg/kg, Tmax, SD rats; rivaroxaban 2 mg/kg alone; geometric mean (GSD) (geometric CV%)
measured.metric: Tmax (h)
Your answer is read as h, so omit the unit and give the number.

Asked: Which measured Tmax value corresponds to O=C(NC[C@H]1CN(c2ccc(N3CCOCC3=O)cc2)C(=O)O1)c1ccc(Cl)s1 [Rivaroxaban, rivaroxaban] ?
Given back: 1.02

###

- method.notes: Pharmacokinetics of apixaban in rats, alone and with palbociclib
- Type: in vivo, Sprague-Dawley rats
- conditions.used: male, Sprague-Dawley, rat, plasma, po, 0.5 mg/kg, AUC0-t, SD rats; apixaban 0.5 mg/kg alone; geometric mean (GSD) (geometric CV%)
measured.metric: AUC(0-t) (ng·h/mL)
The reply should be a number in ng·h/mL, with the unit left off.

Asked: Sample COc1ccc(-n2nc(C(N)=O)c3c2C(=O)N(c2ccc(N4CCCCC4=O)cc2)CC3)cc1 — what was its AUC(0-t)?
Given back: 579

###

- method.notes: Pharmacokinetics of palbociclib in rats, alone and with apixaban or rivaroxaban
- Assay type: in vivo, Sprague-Dawley rats
- conditions.used: male, Sprague-Dawley, rat, plasma, po, 11 mg/kg, AUC0-∞, SD rats; palbociclib 11 mg/kg alone; geometric mean (GSD) (geometric CV%)
measured.metric: AUC(0-inf) (ng·h/mL)
# output: bare number, implied unit ng·h/mL

Asked: Name the reported AUC(0-inf) value associated with the compound CC(=O)c1c(C)c2cnc(Nc3ccc(N4CCNCC4)cn3)nc2n(C2CCCC2)c1=O [Palbociclib, palbociclib]
Given back: 4350

###

- method.notes: Pharmacokinetics of apixaban in rats, alone and with palbociclib
- Type: in vivo, Sprague-Dawley rats
- conditions.used: male, Sprague-Dawley, rat, plasma, po, 0.5 mg/kg, AUC0-∞, SD rats; apixaban 0.5 mg/kg alone; geometric mean (GSD) (geometric CV%)
measured.metric: AUC(0-inf) (µg·h/mL)
Respond with the bare value in µg·h/mL.

Asked: Request the reported AUC(0-inf) associated with COc1ccc(-n2nc(C(N)=O)c3c2C(=O)N(c2ccc(N4CCCCC4=O)cc2)CC3)cc1 [Apixaban, apixaban]
Given back: 0.583

###

- method.notes: Pharmacokinetics of apixaban in rats, alone and with palbociclib
- Type: in vivo, Sprague-Dawley rats
- conditions.used: male, Sprague-Dawley, rat, plasma, po, 0.5 mg/kg, MRT0-t, SD rats; apixaban 0.5 mg/kg alone; geometric mean (GSD) (geometric CV%)
measured.metric: MRT last (h)
Report the figure in h without appending any unit label.

Asked: Recorded MRT last for COc1ccc(-n2nc(C(N)=O)c3c2C(=O)N(c2ccc(N4CCCCC4=O)cc2)CC3)cc1 [Apixaban, apixaban] , please?
Given back: 1.83

###

- method.notes: Pharmacokinetics of palbociclib in rats, alone and with apixaban or rivaroxaban
- Format: in vivo, Sprague-Dawley rats
- conditions.used: male, Sprague-Dawley, rat, plasma, po, 11 mg/kg, MRT0-∞, SD rats; palbociclib 11 mg/kg alone; geometric mean (GSD) (geometric CV%)
measured.metric: MRT inf (h)
Dear colleague, please return just the value in h, with no unit written.

Asked: Item CC(=O)c1c(C)c2cnc(Nc3ccc(N4CCNCC4)cn3)nc2n(C2CCCC2)c1=O [Palbociclib, palbociclib] has what recorded MRT inf?
Given back: 7.39

###

- method.notes: Pharmacokinetics of rivaroxaban in rats, alone and with palbociclib
- Type: in vivo, Sprague-Dawley rats
- conditions.used: male, Sprague-Dawley, rat, plasma, po, 2 mg/kg, AUC0-∞, SD rats; rivaroxaban 2 mg/kg alone; geometric mean (GSD) (geometric CV%)
measured.metric: AUC(0-inf) (ng·h/mL)
All answers are understood in ng·h/mL, so give the number only.

Asked: Please give the measured AUC(0-inf) for this compound: O=C(NC[C@H]1CN(c2ccc(N3CCOCC3=O)cc2)C(=O)O1)c1ccc(Cl)s1 [Rivaroxaban, rivaroxaban]
Given back: 722

###

- method.notes: Pharmacokinetics of palbociclib in rats, alone and with apixaban or rivaroxaban
- Assay type: in vivo, Sprague-Dawley rats
- conditions.used: male, Sprague-Dawley, rat, plasma, po, 11 mg/kg, Tmax, SD rats; palbociclib 11 mg/kg alone; geometric mean (GSD) (geometric CV%)
measured.metric: Tmax (h)
Give just the number in h; leave the unit off.

Asked: # input molecule: CC(=O)c1c(C)c2cnc(Nc3ccc(N4CCNCC4)cn3)nc2n(C2CCCC2)c1=O ; wanted: its Tmax
Given back: 2.83

###

- method.notes: Pharmacokinetics of palbociclib in rats, alone and with apixaban or rivaroxaban
- Format: in vivo, Sprague-Dawley rats
- conditions.used: male, Sprague-Dawley, rat, plasma, po, 11 mg/kg, AUC0-t, SD rats; palbociclib 11 mg/kg alone; geometric mean (GSD) (geometric CV%)
measured.metric: AUC(0-t) (ng·h/mL)
Write down the numeric answer in ng·h/mL and omit the unit.

Asked: Look at this compound and give its reported AUC(0-t). CC(=O)c1c(C)c2cnc(Nc3ccc(N4CCNCC4)cn3)nc2n(C2CCCC2)c1=O
Given back: 4340

###

- method.notes: Pharmacokinetics of apixaban in rats, alone and with palbociclib
- Assay type: in vivo, Sprague-Dawley rats
- conditions.used: male, Sprague-Dawley, rat, plasma, po, 0.5 mg/kg, Tmax, SD rats; apixaban 0.5 mg/kg alone; geometric mean (GSD) (geometric CV%)
measured.metric: Tmax (min)
The answer is to be given in min; state only the numeric part.

Asked: Please report the recorded Tmax for COc1ccc(-n2nc(C(N)=O)c3c2C(=O)N(c2ccc(N4CCCCC4=O)cc2)CC3)cc1 [Apixaban, apixaban] .
Given back: 31.8

###

- method.notes: Pharmacokinetics of rivaroxaban in rats, alone and with palbociclib
- Format: in vivo, Sprague-Dawley rats
- conditions.used: male, Sprague-Dawley, rat, plasma, po, 2 mg/kg
measured.metric: MRT inf (h)
// return numeric value only (unit: h, not printed)

Asked: # get_value(readout='MRT inf', item= O=C(NC[C@H]1CN(c2ccc(N3CCOCC3=O)cc2)C(=O)O1)c1ccc(Cl)s1 )
Given back: 3.67

###

- method.notes: Pharmacokinetics of palbociclib in rats, alone and with apixaban or rivaroxaban
- Type: in vivo, Sprague-Dawley rats
- conditions.used: male, Sprague-Dawley, rat, plasma, po, 11 mg/kg, t1/2, SD rats; palbociclib 11 mg/kg alone; geometric mean (GSD) (geometric CV%)
measured.metric: half-life (h)
API: value field is a number in h; no unit string.

Asked: Using the record for CC(=O)c1c(C)c2cnc(Nc3ccc(N4CCNCC4)cn3)nc2n(C2CCCC2)c1=O [Palbociclib, palbociclib] , report its half-life.
Given back: 3.99
